Would you mind telling me the reported melting point of each entry?
Please state the figure in °C; there is no need to write the unit.

Field melting point (entry CCC(C)c1cc([N+](=O)[O-])cc([N+](=O)[O-])c1OC(C)=O (stereo unspecified) ) reads 26

melting point reading for CS(=O)(=O)c1ccc2c(c1)N(CCCN1CCC(C(N)=O)CC1)c1ccccc1S2 : 170

Looking up CP(=O)(c1ccccc1)c1ccccc1 , I found its melting point recorded as 113

Noted for CCCCC1C(=O)NC(=O)N(C2CCCCC2)C1=O (stereo unspecified) : its melting point reads 84

Value of melting point reported for the compound CN(C(O)=NC(C)(C)c1ccccc1)c1ccccc1 is 72

# melting point of O=C(O)c1ccccc1S(=O)(=O)O = 141

---

Binary label based on melting point with cut-off 90 °C: below gives TRUE, not below gives FALSE.

In: In plain terms, does CCOC(=O)c1sc(N)nc1C(F)(F)F come in under 90 °C for melting point?
Out: FALSE

In: Given O=C(NN=Cc1ccc([N+](=O)[O-])o1)c1ccc(O)cc1 , is recorded melting point strictly lower than 90 °C?
Out: FALSE

In: Does this compound meet the criterion melting point < 90 °C? CCN(CC)C(C)CN1c2ccccc2Sc2ccccc21 (centres undefined)
Out: TRUE

In: Dear reviewer, please state whether CC(=O)c1ccccc1 has melting point strictly beneath 90 °C.
Out: TRUE

In: A record lists CCC(C(=O)OC)c1ccccc1 (centres undefined) . Is its melting point below 90 °C?
Out: TRUE

In: Does this compound meet the criterion melting point < 90 °C? O=[N+]([O-])c1c(O)cccc1O
Out: TRUE

In: Record O=C(c1ccc(O)c(O)c1)c1c(O)cc(O)cc1O : is its melting point strictly below 90 °C?
Out: FALSE

In: Dear reviewer, please state whether c1ccc2c(c1)Sc1ccccc1S2 has melting point strictly beneath 90 °C.
Out: FALSE

In: I wonder whether COC(=O)c1cccc(Cl)c1 has melting point below 90 °C. Can you tell?
Out: TRUE

In: Identify whether the compound O=[N+]([O-])c1ccc2ccc3cccc4ccc1c2c34 records melting point below 90 °C.
Out: FALSE

In: Is it true that melting point reported for O=C1OC2(OC=C(c3ccccc3)C2=O)c2ccccc21 (centres undefined) is less than 90 °C?
Out: FALSE

In: Please state whether melting point is below 90 °C for O=C(O)c1cccnc1
Out: FALSE

In: Is 90 °C strictly greater than the compound's reported melting point? compound: CN(C)C(=O)N(C(=O)c1ccccc1)c1ccc(Cl)c(Cl)c1
Out: FALSE

In: Lab note: confirm whether the reported melting point for this compound is below 90 °C, equality not counting. compound: Brc1cccc2c1Oc1ccccc1O2
Out: FALSE

In: Does the reported melting point of the following compound sit strictly below 90 °C? Oc1ccc2ccc3cccc4ccc1c2c34
Out: FALSE

In: Strictly below 90 °C in melting point? O=C(OCc1ccccc1)c1ccccc1C(=O)OCc1ccccc1
Out: TRUE

In: Please let me know if CCn1ccc(NS(=O)(=O)c2ccc(N)cc2)nc1=O shows melting point below 90 °C.
Out: FALSE

In: Does this compound meet the criterion melting point < 90 °C? NNc1nncc2ccccc12
Out: FALSE

In: Field: below-cutoff. Rule: recorded melting point strictly less than 90 °C. Subject: NC(N)=S
Out: FALSE

In: Does this compound meet the criterion melting point < 90 °C? COC(=O)c1ccccc1CS(=O)(=O)NC(=O)Nc1nc(OC)cc(OC)n1
Out: FALSE

In: Dear colleague, could you confirm whether melting point of CCc1ccccc1N falls below 90 °C? Thanks.
Out: TRUE

In: Regarding O=C(O)C=Cc1ccc(Br)cc1 , kindly confirm whether its melting point is beneath 90 °C.
Out: FALSE

In: Just wondering, is melting point of c1ccc(CNc2ccccc2)cc1 below 90 °C?
Out: TRUE

In: # TODO verify melting point < 90 °C strictly for this compound: CN(C)CCO
Out: TRUE

In: For O=C(C=Cc1ccccc1)OCc1ccccc1 , is the recorded melting point below the cut-off of 90 °C?
Out: TRUE

In: Identify whether the compound O=C(OCCOC(=O)c1ccccc1)c1ccccc1 records melting point below 90 °C.
Out: TRUE

In: Please state whether melting point is below 90 °C for ClC(Cl)=C(Cl)C(Cl)=C(Cl)Cl
Out: TRUE

In: For this compound, is melting point lower than 90 °C? CCc1ccc2cc(O)c(O)cc2c1
Out: FALSE

In: melting point under 90 °C? Item: FCCCl
Out: TRUE

In: Please indicate whether the reported melting point of CCN(Cc1ccncc1)C(=O)C(CO)c1ccccc1 (centres undefined) is strictly below 90 °C.
Out: FALSE

In: Hello, is melting point of the following compound strictly smaller than 90 °C? CCCCCCOC(=O)CCCCCCCC(=O)OCCCCCC
Out: TRUE

In: Lab note: confirm whether the reported melting point for this compound is below 90 °C, equality not counting. compound: FC(Cl)(Cl)C(Cl)Cl
Out: TRUE

In: hey, is melting point for COc1nccnc1NS(=O)(=O)c1ccc(N)cc1 lower than 90 °C or not?
Out: FALSE

In: Confirm or reject: melting point of OCc1cccc(O)c1 lies strictly below 90 °C
Out: TRUE

In: Record COc1c(OC)c(OC(C)=O)c2c(OC)cccc2c1OC(C)=O : is its melting point strictly below 90 °C?
Out: TRUE

In: I wonder whether C=Cc1ccccc1Br has melting point below 90 °C. Can you tell?
Out: TRUE

In: Criterion: melting point strictly below 90 °C. Is it met by C(=C(c1ccccc1)c1ccccc1)c1ccccc1 ?
Out: TRUE

In: Just wondering, is melting point of COC(=O)/C=C/C(C)=C\C=C\C(C)=C\C=C\C=C(C)\C=C\C=C(C)\C=C\C(=O)O below 90 °C?
Out: FALSE

In: API: query returns whether the compound falls strictly under 90 °C in melting point. Query: CC1(C)[C@H](C(=O)O[C@H](C#N)c2cccc(Oc3ccccc3)c2)[C@@H]1C(Br)C(Br)(Br)Br (some centres undefined)
Out: FALSE

In: Hi there! Is melting point for Nc1ncnc2c1ncn2[C@H]1CC[C@@H](CO)O1 below 90 °C, do you know?
Out: FALSE

In: Hello, is melting point of the following compound strictly smaller than 90 °C? ClC(Cl)=C(Cl)Cl
Out: TRUE

In: Bench note: check whether CS(=O)(=O)OCCCNCCCOS(C)(=O)=O shows melting point below 90 °C
Out: FALSE

In: Hi there! Is melting point for N[C@H](CCC(=O)O)C(=O)O below 90 °C, do you know?
Out: FALSE

In: Hi there! Is melting point for Cc1cc(C)c(C(=O)O)cc1C below 90 °C, do you know?
Out: FALSE

In: melting point strictly < 90 °C for this compound? C=C(C)C(=O)OC
Out: TRUE

In: Problem: For the compound CC1=C(C(=O)Nc2ccccc2)S(=O)(=O)CCO1 , is melting point under 90 °C?
Out: FALSE

In: Criterion: melting point strictly below 90 °C. Is it met by CCCCCCCCCCCCCCCCCCCCCC(=O)O ?
Out: TRUE

In: Please let me know if CC1NC(C)SC(C)S1 (centres undefined) shows melting point below 90 °C.
Out: TRUE

In: Identify whether the compound CC(C)(C)c1cc([N+](=O)[O-])cc([N+](=O)[O-])c1O records melting point below 90 °C.
Out: FALSE

In: I'd appreciate it if you could check whether Cc1cccc(C(C)(C)C)c1 has melting point smaller than 90 °C.
Out: TRUE

In: I wonder whether CCCCCN has melting point below 90 °C. Can you tell?
Out: TRUE

In: Please check: melting point for O=C(O)CCCl , strictly under 90 °C or not?
Out: TRUE

In: Please indicate whether the reported melting point of O=C(Nc1ccc(Cl)cc1)c1cc(Cl)cc(Cl)c1O is strictly below 90 °C.
Out: FALSE

In: melting point under 90 °C? Item: O=[N+]([O-])c1ccccc1SSc1ccccc1[N+](=O)[O-]
Out: FALSE

In: Please state whether melting point is below 90 °C for CN(C)C(=O)SCCCCOc1ccccc1
Out: TRUE

In: Just wondering, is melting point of O=C(Cl)c1ccc([N+](=O)[O-])cc1 below 90 °C?
Out: TRUE

In: Consider COc1ccc(C=O)c(OC)c1 . Does its melting point lie strictly below 90 °C?
Out: TRUE

---

Doc: threshold 70 °C (exclusive). Items with melting point beneath it return rule met; others return rule not met.

In: Lab note: melting point threshold 70 °C. Does this compound come in strictly under it? O=C(CO)[C@@H](O[C@H]1O[C@H](CO)[C@@H](O)[C@H](O)[C@H]1O)[C@H](O)[C@H](O)CO
Out: rule not met

In: Say whether its melting point is strictly beneath 70 °C. Entry: O=c1[nH]c(=O)n([C@H]2C[C@H](O)[C@@H](CO)O2)cc1F
Out: rule not met

In: Confirm or reject: melting point of CC(C)C(c1ccccc1)C(C)C lies strictly below 70 °C
Out: rule met

In: A record lists Clc1cccc(Br)c1 . Is its melting point below 70 °C?
Out: rule met

In: Does CCCCCCCCCCCCCCCCCCCCCCCCCC(=O)OC have melting point strictly under 70 °C?
Out: rule met

In: Take the compound CCCCCCCC(C)=O and say whether its melting point is less than 70 °C.
Out: rule met

In: Dear colleague, could you confirm whether melting point of CC1=CC(=O)CC(C)(C)C1 falls below 70 °C? Thanks.
Out: rule met

In: Record N#C[S-].[NH4+] : is its melting point strictly below 70 °C?
Out: rule not met

In: Does the reported melting point of the following compound sit strictly below 70 °C? C[C@H]1O[C@@H](n2cc(F)c(=O)[nH]c2=O)[C@H](O)[C@@H]1O
Out: rule not met

In: Hi there! Is melting point for C[C@]12C[C@H](O)[C@H]3[C@@H](CCC4=CC(=O)CC[C@@]43C)[C@@H]1CC[C@@H]2C(=O)CO below 70 °C, do you know?
Out: rule not met

In: API: query returns whether the compound falls strictly under 70 °C in melting point. Query: NCCO
Out: rule met

In: Consider CCCCC(CC)COC(=O)/C=C/C(=O)OCC(CC)CCCC (stereo not drawn) . Does its melting point lie strictly below 70 °C?
Out: rule met

In: Dear colleague, could you confirm whether melting point of CC(=O)[C@H]1CC[C@H]2[C@@H]3C=CC4=CC(=O)CC[C@@]4(C)[C@@H]3CC[C@]12C falls below 70 °C? Thanks.
Out: rule not met

In: melting point strictly < 70 °C for this compound? Cc1cc(C)c(NC(=O)CN(CC(=O)O)CC(=O)O)c(C)c1Br
Out: rule not met

In: Is it true that melting point reported for CCCCCCC(C)CC (stereo not drawn) is less than 70 °C?
Out: rule met

In: Does the reported melting point of CC=Cc1cccc(OC)c1O stay below 70 °C?
Out: rule not met

In: Identify whether the compound CCCCCCCC(=O)NO records melting point below 70 °C.
Out: rule not met

In: is_below(melting point, 70 °C) for C#C[C@]1(O)CC[C@H]2[C@@H]3CCC4=CC(=O)CC[C@]4(C)[C@H]3CC[C@@]21C ?
Out: rule not met

In: Field: below-cutoff. Rule: recorded melting point strictly less than 70 °C. Subject: O=[N+]([O-])c1ccccc1-c1ccccc1[N+](=O)[O-]
Out: rule not met

In: Please determine if Oc1ccc(O)c(Cc2ccccc2)c1 is below 70 °C in terms of melting point.
Out: rule not met

In: Does this compound meet the criterion melting point < 70 °C? Cc1ccc(S(=O)O)cc1
Out: rule not met

In: Would you kindly verify if melting point of NCCCCCO is strictly less than 70 °C?
Out: rule met

In: Say whether its melting point is strictly beneath 70 °C. Entry: BrCC(Br)(Br)CBr
Out: rule met

In: Dear colleague, could you confirm whether melting point of Cc1cccc(C)c1O falls below 70 °C? Thanks.
Out: rule met

In: Determine whether this compound shows melting point lower than 70 °C (ties excluded): Nc1cc(C(=O)O)ccc1Cl
Out: rule not met

In: Regarding CCCC#CCCCC(=O)O , kindly confirm whether its melting point is beneath 70 °C.
Out: rule met
